Reference for the values: PubChem BioAssay AID743417

Provide the reported AC50 of each item.
Tested on: Clone20 osteoblast Shn3 3'UTR firefly luciferase, 24 h
Assay: Shn3 3'UTR reporter inhibitors, dose response, cell-based, Clone20 osteoblasts, luminescence, dry powder, set 2 (AID 743417)
Results filed as inconclusive are left out.

Which AC50 value belongs to NC(=O)CC(NC(=O)c1ccc(Br)cc1)c1ccc(N2CCC(Br)CC2)c([N+](=O)[O-])c1 (stereo unspecified) ? 4190 nM

Now the same for O=C(Nc1ccccc1Cl)/C(Cl)=C(\Cl)S(=O)c1ccccc1 (stereo unspecified) 438 nM

Now the same for CCCCC(=O)NC(c1ccc(Cl)cc1Cl)c1ccc2cccnc2c1O (stereo unspecified) 670 nM

Now the same for CC(N)C(=O)NC1C2C(=C(O)CC(O)C2O)C(=O)OC1(C)C(Cl)Cl (stereo unspecified) 1850 nM

Now the same for CCOC(=O)c1c(NC(=O)C2c3ccccc3Oc3ccccc32)sc(C(C)=O)c1C 4670 nM

Now the same for CC(C)c1ccc(NC(=O)Nc2nc(C(N)c3ccccc3)cs2)cc1 (stereo unspecified) 2480 nM

* * *

Provide the reported AC50 of each item.
System: Clone20 osteoblast Shn3 3'UTR firefly luciferase, 24 h
Assay: Shn3 3'UTR reporter inhibitors, dose response, cell-based, Clone20 osteoblasts, luminescence, dry powder, set 2 (AID 743417)
Results filed as inconclusive are left out.

Which AC50 value belongs to Cn1nc(-c2ccccn2)nc2c(=O)n(C)c(=O)nc1-2 ? 493 nM

Now the same for Cc1ccc(NC(=O)C2CCN(S(=O)(=O)c3ccc(N4CCCC4=O)cc3)CC2)cc1Cl 549 nM

Now the same for COc1ccc(S(=O)(=O)N2CCN(c3cc(-c4ccccc4)nc4ncnn34)CC2)cc1 3890 nM

Now the same for CSc1nnc(NC(=O)c2nc(S(=O)(=O)Cc3ccc(C)cc3)ncc2Cl)s1 3180 nM

Now the same for COCCn1c(SCC(=O)/C=C2\N(C)c3ccccc3C2(C)C)nnc1-c1ccncc1 2650 nM

Now the same for CCN(CC)Cc1c(O)ccc2c1O/C(=C\C=C\c1ccccc1)C2=O 1960 nM

Now the same for COc1ccc(NS(=O)(=O)c2cccc(NC(=O)c3ccc(S(=O)(=O)N4CCCCCC4)cc3)c2)cc1 829 nM

Now the same for COc1ccccc1NS(=O)(=O)c1cc(NC(=O)c2ccc(Cl)nc2)ccc1Cl 3120 nM

* * *

Tested on: Clone20 osteoblast Shn3 3'UTR firefly luciferase, 24 h
Assay: Shn3 3'UTR reporter inhibitors, dose response, cell-based, Clone20 osteoblasts, luminescence, dry powder, set 2 (AID 743417)
Inconclusive results are not listed.
Readout kind: AC50

Which AC50 value belongs to CC(=O)NC(c1ccc(C(C)C)cc1)c1ccc2cccnc2c1O (centres undefined) ? 528 nM

Now the same for CCN(CC)CCCNc1nc2ccccc2c2[nH]c3ccc(OC)cc3c12 12300 nM

Now the same for Cc1cc(C)c(-c2csc(NC(=O)CCCc3nc4ccccc4c(=O)[nH]3)n2)c(C)c1 2970 nM

Now the same for CC(C)Cc1ccc(C(C)C(=O)Nc2ccccc2O)cc1 (centres undefined) 1890 nM

* * *

System: Clone20 osteoblast Shn3 3'UTR firefly luciferase, 24 h
Test: Shn3 3'UTR reporter inhibitors, dose response, cell-based, Clone20 osteoblasts, luminescence, dry powder, set 2 (AID 743417)
Results filed as inconclusive are left out.
Provide the reported AC50 of each item.

Request: AC50, test system Clone20 osteoblast Shn3 3'UTR firefly luciferase, 24 h, entry Cc1ccc(S(=O)(=O)NCc2ccc(C(=O)N3CCN(c4ccc([N+](=O)[O-])cc4)CC3)cc2)cc1 3.79 µM

Now the same for Oc1cc(-c2ccncc2)cc2cccnc12 5.4 µM

Now the same for Cc1cccc(CS(=O)(=O)c2ncc(Cl)c(C(=O)NCc3ccc4c(c3)OCO4)n2)c1 0.938 µM

Now the same for C=C1CC(COc2cc(=O)oc3ccccc23)(c2ccccc2)OC1=O (centres undefined) 3.93 µM

Now the same for NC1=NC[C@@H](CC2CCCCC2)N1CCc1cc(C(F)(F)F)cc(C(F)(F)F)c1 9.92 µM

Now the same for O=C(c1cccc(S(=O)(=O)N2CCN(c3ccc(F)cc3)CC2)c1)N1CCCC(C(F)(F)F)C1 (centres undefined) 0.942 µM

Now the same for CC(=O)N1CCN(C(=O)CCc2cc(C(C)(C)C)c(O)c(C(C)(C)C)c2)CC1 4.46 µM

Now the same for CCOC(=O)N1CCN(S(=O)(=O)c2ccc(C(=O)Nc3nc4ccc(F)cc4s3)cc2)CC1 4.79 µM

Now the same for Cc1nc(SCC(=O)Nc2nc3ccccc3s2)c(C#N)c(C)c1C < 0.26 µM

* * *

Provide the reported AC50 of each item.
Test system: Clone20 osteoblast Shn3 3'UTR firefly luciferase, 24 h
Test: Shn3 3'UTR reporter inhibitors, dose response, cell-based, Clone20 osteoblasts, luminescence, dry powder, set 2 (AID 743417)
Results filed as inconclusive are left out.

Request: AC50, test system Clone20 osteoblast Shn3 3'UTR firefly luciferase, 24 h, entry Cc1ccc(-c2nn(C(C)(C)C)c3ncnc(N)c23)cc1 5.89 µM

Now the same for Cc1ccc(Cn2c(=N)n(CC(O)COc3ccccc3)c3ccccc32)cc1 (centres undefined) 2.46 µM

Now the same for Cc1ccc(C(=O)OCn2ncc(Cl)c(Cl)c2=O)cc1 5.07 µM

Now the same for Oc1c(C(Nc2ccccn2)c2ccccn2)ccc2cccnc12 (centres undefined) 4.36 µM

* * *

Provide the reported AC50 of each item.
Test system: Clone20 osteoblast Shn3 3'UTR firefly luciferase, 24 h
Experiment: Shn3 3'UTR reporter inhibitors, dose response, cell-based, Clone20 osteoblasts, luminescence, dry powder, set 2 (AID 743417)
Records with an inconclusive call do not appear.

Request: AC50, test system Clone20 osteoblast Shn3 3'UTR firefly luciferase, 24 h, entry O=C(Cn1cc(C(=O)C2CC2)c2ccccc21)Nc1ccccc1Cl 3.42 µM

Now the same for O=C(CSc1c2c(nc3ccc(Cl)cc13)CCCC2)NCc1ccco1 5.71 µM

Now the same for O=C1OC[C@H](Cc2ccc3c(c2)OCO3)/C1=C\c1ccc2c(c1)OCO2 2.66 µM

Now the same for CC(C)c1nnc(NC(=O)c2nc(S(=O)(=O)Cc3ccccc3)ncc2Cl)s1 0.876 µM

Now the same for Cc1cccc(C)c1NC(=O)c1nc(S(=O)(=O)Cc2ccccc2)ncc1Cl 4.33 µM

Now the same for CCOC(=O)c1oc2ccc(S(=O)(=O)n3nc(-c4ccccc4)cc3N)cc2c1C 0.854 µM

Now the same for COc1ccccc1NC(=O)c1nc(S(=O)(=O)Cc2ccccc2)ncc1Cl 0.492 µM

Now the same for O=C(OCc1ccccc1)N(CCCCN(CCCNCc1ccccc1)C(=O)OCc1ccccc1)CCCNCc1ccccc1 5.36 µM

Now the same for NC(=O)c1ccc(N2CCN(S(=O)(=O)c3cccs3)CC2)c([N+](=O)[O-])c1 0.305 µM

Now the same for O=c1oc2ccccc2c(Cl)c1CN1CCCCC1 4.99 µM

Now the same for O=[N+]([O-])/C=C/c1cn(Cc2ccc(Cl)cc2)c2ccccc12 8.32 µM

* * *

Tested on: Clone20 osteoblast Shn3 3'UTR firefly luciferase, 24 h
Assay: Shn3 3'UTR reporter inhibitors, dose response, cell-based, Clone20 osteoblasts, luminescence, dry powder, set 2 (AID 743417)
Inconclusive results are not listed. Activity calls are given as the source filed them.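 How the source made its calls: active means compounds lowering the luciferase signal with a fitted half-maximal dose at most twice their top valid dose (cut at about 30 µM in these data); inconclusive means flat fits with moderate signal loss, or poor fits; inactive means the rest.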
// allowed return values: active, inactive

Hello, I am checking results. What call was entered for Cn1cc(S(=O)(=O)N2CCc3ccccc32)cc1C(=O)NC(C)(C)C ? active

Now the same for O=C(Nc1ccc(F)c(F)c1)c1ccc(F)c(S(=O)(=O)N2CCC3(CC2)OCCO3)c1 active

Now the same for COc1ccc(C(=O)NC(=S)NNC(=O)c2ccc3ccccc3n2)cc1 active

Now the same for COc1ccc(C2/C=C\CN(S(=O)(=O)c3ccc(C)cc3)[C@H](Cc3ccccc3)C(=O)N2Cc2ccc(F)cc2)cc1 (some centres undefined) active

Now the same for COc1ccc(-c2noc(CCCCC(=O)N3CCN(c4cc(C)ccc4C)CC3)n2)cc1 active

Now the same for O=S(=O)(/C(=C\c1ccc(C(F)(F)F)cc1)c1nc2ccccc2[nH]1)c1ccccc1 active

Now the same for Cc1ccc(C)c(N2CCN(C(=O)CCCCCn3c(=S)[nH]c4ccc(N5CCOCC5)cc4c3=O)CC2)c1 active

Now the same for CC(C)C(=O)NC(c1ccco1)c1ccc2cccnc2c1O (centres undefined) active

Now the same for COc1ccccc1-c1cc(C(F)(F)F)nc(S(=O)(=O)CCCC(=O)N2CCCCC2C)n1 (centres undefined) active

Now the same for COc1ccc(NC(=O)COc2ccc(N(C)S(=O)(=O)c3ccc(Cl)cc3)cc2)cc1OC active

Now the same for COc1ccc(CNc2ncnc3sccc23)cc1 active

Now the same for Cc1ccc(C)c(S(=O)(=O)N2CCN(Cc3ccc(O)c4ncccc34)CC2)c1 active

Now the same for CCCCCn1c(N2CCN(c3cccc(Cl)c3)CC2)nc2c1c(=O)[nH]c(=O)n2C active

Now the same for O=C(Nc1nc(-c2ccccn2)cs1)C1COc2ccccc2O1 (centres undefined) active

Now the same for Cc1cccnc1CN1CCN(C(=O)c2cc(COc3ccc4ncccc4c3)on2)CC1 active

Now the same for Cc1c(CCCl)c(Cl)n2c(nc3ccccc32)c1C#N active

Now the same for CS(=O)(=O)c1nc(-c2ccccc2)cc(C(F)(F)F)n1 active

Now the same for COC(=O)C1=C(c2ccc3ccccc3c2)C[C@@H]2CC[C@H]1N2C(=O)NCC1CC1 active

Now the same for Cc1cccc(Cn2c(NCCO)nc3c2c(=O)n(C)c(=O)n3C)c1 active

Now the same for COc1cc2nc(N3CCN(c4cc(C)ccc4C)CC3)nc(N)c2cc1OC active

Now the same for O=C(N[C@@H]1C/C=C\C[C@@H](CC(=O)N(CCO)Cc2ccccc2)C(=O)NC[C@H](c2ccccc2)OC1=O)OCC1c2ccccc2-c2ccccc21 active

Now the same for CCC(=O)OCCNc1cc(Sc2nccn2C)c2nonc2c1[N+](=O)[O-] active

Now the same for OC(CNCCC1C=Nc2ccccc21)Cn1c2ccc(Cl)cc2c2cc(Cl)ccc21 (centres undefined) active

Now the same for O=C(Nc1nc(-c2ccccn2)cs1)c1ccccc1-n1cnnn1 active

Now the same for O=C(c1nnsc1S(=O)(=O)c1ccc(Cl)cc1)N1CCOCC1 active

Now the same for CCOc1cc(CNCc2ccccc2)ccc1OCc1ccc(Cl)cc1 active

Now the same for CN(CC(=O)Nc1ccccc1Cl)C(=O)c1cccc(S(=O)(=O)N2CCN(c3ccccc3)CC2)c1 active

Now the same for CCCCCCCN1C(Nc2ccccc2)=NC[C@@H]1Cc1ccccc1 active

Now the same for CC(C)(C)c1ccc(CN(Cc2ccccc2)C(c2ccccn2)c2nnnn2C(C)(C)C)cc1 (centres undefined) active

Now the same for CC(C)(C)c1ccc(CN2C3=NCCCN3c3ccccc32)cc1 active

Now the same for CC1=NN(c2nc3ccccc3[nH]2)C(=O)C1Cc1ccccc1 (centres undefined) active

Now the same for CC(=O)c1ccc(N2CCC(c3cc(-c4ccc(Cl)cc4)n[nH]3)CC2)c([N+](=O)[O-])c1 active

Now the same for CCN(CC)c1ccc(/C=C2/SC(=O)N(C(C)C)C2=O)o1 active

Now the same for CC(C)CCC(C(=O)O)C(C)CC(=O)NNC(=O)c1ccco1 (centres undefined) inactive

Now the same for C=CCSc1nc2ccccc2n1C(=O)/C=C/c1cc(OC)c(OC)c(OC)c1 active

Now the same for COc1ccccc1OCC(=O)c1[nH]c(C)c(C(C)=O)c1C active

Now the same for Cc1cc(C)c2nc(NNC(=O)c3ccc(S(=O)(=O)N4CC(C)CC(C)C4)cc3)sc2c1 (centres undefined) active

Now the same for COc1ccccc1-c1cc(C(F)(F)F)nc(S(=O)(=O)CCCC(=O)Nc2cccnc2Cl)n1 active

Now the same for CC(=O)c1cn(CCOc2cc(C)ccc2C)c2ccccc12 active
